system: OVCAR-8 ovarian; test: NCI-60 one-dose screen, 48 h (100 = growth as untreated, 0 = no growth, -100 = all killed); conditions: 10 µM unless noted
About 83,000 compounds went through this panel and 20% of them were active in at least one assay; those are over-represented in the sample as a whole. Activity calls are given as the source filed them. How the source made its calls: active means growth percent below 10; inactive means the rest.
The compounds listed here are annotated with their growth.
VALUE TYPE: growth

1) COc1cc2c(c(OC)c1)C1c3cc(OC)ccc3NC(=O)N1CC2 (centres undefined)
95.1% (inactive)
2) Oc1ccc(N=Nc2nccs2)c(O)c1
36.4% (inactive)
3) COc1ccc(-c2cc(-c3ccccc3)nc(NCCNc3ccnc4cc(Cl)ccc34)n2)cc1
-60.2% (active)
4) CCN(CCNc1ccc(C)c2sc3cc(Cl)ccc3c(=O)c12)CC(C)O (centres undefined)
58.3% (inactive)
5) CCOc1ccc(/C=C(\C#N)c2cc3ccccc3[nH]2)cc1
65.4% (inactive)
6) CC1Cc2c(Cl)ncnc2N(C)c2ccc(O)cc21 (centres undefined)
29.7% (inactive)
7) CCCCCn1sc(=O)n(Cc2ccc(CNC(=O)OCc3ccc4cccc(O)c4n3)cc2)c1=O
8.91% (active)
8) N#Cc1c(Cl)nc(SCC2CO2)nc1-c1ccccc1 (centres undefined)
51.6% (inactive)
9) O=C(N/N=C/c1ccc([N+](=O)[O-])cc1)c1ccc(Br)o1
71.8% (inactive)
10) CC(C)c1ccc(C(=O)Nc2nc3ccc(O)cc3s2)cc1
40.6% (inactive)
11) COc1ccc2c(c1)C(C)Cc1c(Cl)nc(C)nc1N2C (centres undefined)
24.2% (inactive)
12) C[n+]1cccc(NC(=O)c2ccc3ccc4ccc(C(=O)Nc5ccc[n+](C)c5)nc4c3n2)c1
62.5% (inactive)
13) C=C(C)[C@@H]1CC[C@]2(C(=O)NCCNCCNC(=O)OC(C)(C)C)CC[C@]3(C)[C@H](CC[C@@H]4[C@@]5(C)CCC(=O)C(C)(C)[C@@H]5CC[C@]43C)[C@@H]12
44.4% [100 µM] (inactive)
14) c1coc2occoc=2o1
107% (inactive)
15) COc1cc2c(c(OC)c1OC)-c1cc(I)c(O)cc1[C@@H](NC(C)=O)CC2
12.6% (inactive)
16) O=C(O)CSCc1nnc2n(Cc3ccccc3)c(=O)c3c4c(sc3n12)CCCC4
92.6% (inactive)
17) Cc1ccc(-c2cn(C/C=C3\C=CN(S(=O)(=O)c4ccccc4)CC3)nn2)cc1
100% (inactive)
18) O=C1NC(=O)C(Cc2ccccc2)(Cc2ccccc2)N1
104% (inactive)
19) Cc1c(Cn2cc(COc3ccc(Br)cc3)nn2)c(C)c(Cn2cc(COc3ccc(Br)cc3)nn2)c(C)c1Cn1cc(COc2ccc(Br)cc2)nn1
95.1% (inactive)
20) CCN(CC)CCCCCCNc1cccc2cc(Br)cnc12
80.2% (inactive)
21) C=C(C)[C@@H]1CC[C@]2(C(N)=O)CC[C@]3(C)[C@H](CC[C@@H]4[C@@]5(C)C/C(=C/c6cccnc6)C(=O)C(C)(C)[C@@H]5CC[C@]43C)[C@@H]12
20.3% [100 µM] (inactive)
22) CCOC(=O)c1c[nH]c2cc(OCC3CC3)c(OCC3CC3)cc2c1=O
99.5% (inactive)
23) C=C(C)[C@@H]1CC[C@]2(C)[C@H](CC[C@@H]3[C@@H]([C@@](C)(O)CCC=C(C)C)CC[C@]32C)[C@@]1(C)CCC(=O)O
14.8% [100 µM] (inactive)
24) Brc1ccc2c(c1)CN(C1CCCCC1)CO2
114% (inactive)
25) [2H]C1([2H])CCN(C(=O)C2CC2)c2cc(NS(=O)(=O)c3ccc(-c4cccc(C(N)=O)c4)cc3)ccc21
53.9% (inactive)
26) CC(=O)O.CC(=O)O.O.[Fe]
99.1% (inactive)
27) COc1ccc(OC)c(NC=O)c1
104% (inactive)
28) Cc1ccc(-n2nc3n(/c2=N\C(=O)NS(=O)(=O)c2ccc(C)cc2)CCN3C2=NCCN2)cc1
103% (inactive)
29) O=c1cc(-c2ccccc2)oc2c(O)c(O)ccc12
52.8% (inactive)
30) C=CCCCCCCCCC(=O)OC(C)C
104% (inactive)
31) O=C(Nc1cccc2cccnc12)c1cc(C(=O)c2ccc(Cl)cc2)n2ccc(-c3ccncc3)cc12
97.8% (inactive)
32) CC1(C)C(=O)/C(=C\c2ccco2)C[C@]2(C)[C@H]3CC=C4[C@@H]5C[C@](C)(C(=O)O)CC[C@]5(C)CC[C@@]4(C)[C@]3(C)CC[C@@H]12
-46.1% [100 µM] (active)
33) COc1cc(Cl)cc(-c2nn(C(=O)NS(=O)(=O)c3ccccc3)cc2-c2ccncc2)c1
33.1% (inactive)
34) O=C(NCCO)c1cccnc1
102% (inactive)
35) O=C1COCCN1c1ccc(NCc2cn(Cc3ccccc3)c3ccccc23)cc1
93.7% (inactive)
36) CCCCOC(=O)c1cccc([N+](=O)[O-])c1
100% (inactive)
37) C=C(C)[C@@H]1CC[C@]2(C(=O)OC)CC[C@]3(C)[C@H](CC[C@@H]4[C@@]5(C)CC/C(=N\OCCC(=NCCC#N)NOCCC#N)C(C)(C)[C@@H]5CC[C@]43C)[C@@H]12
13.2% [100 µM] (inactive)
38) CCCCCCSc1ncnc2nc[nH]c12
95.5% (inactive)
39) Cc1cc(-c2ccc(N=Nc3c(S(=O)(=O)O)cc4cc(S(=O)(=O)O)cc(N)c4c3O)c(C)c2)ccc1N=Nc1cc(S(=O)(=O)O)c2ccccc2c1O
96.6% (inactive)
